Assign Particle size to each entry below.
- EXPERIMENTAL DETAILS: Analysis of luciferase mRNA lipid particle composition (Production Example 1)
- Assay type: physicochemical
- TEST CONDITIONS: lipid particle cationic lipid:DPPC:cholesterol:GM-020=60:10.6:28:1.4 with luciferase mRNA; Zetasizer Nano ZS
State the answer as a number, implicitly in nm.

Give me measured Particle size, please, for this molecule: CCCC/C=C\CCCCCCCC(=O)OCC(COC(=O)CCCCCCC/C=C\CCCC)(COC(=O)CCCCCCC/C=C\CCCCCC)COC(=O)CCCN(C)C
76

Identify the reported Particle size for the following entry. CCCC/C=C\CCCCCCCC(=O)OCC(COC(=O)CCCCCCC/C=C\CCCC)(COC(=O)CCCCCCCCC)COC(=O)CCCN(C)C
92

Report measured Particle size; entry is CCCC/C=C\CCCCCCCC(=O)OCC(COC(=O)CCCCCCC)(COC(=O)CCCCCCC/C=C\CCCC)COC(=O)CCCN(C)C
108
